Entry source: ChEMBL document CHEMBL1201862

System: NCI-H522
Test: NCI tumour cell line growth inhibition, 48 h
The source made the active and inactive calls. Rule as the data show it: active = GI50 up to about 1.1 µM and inactive = higher.
Form entry, call: pick from active, inactive

| compound | class assignment |
| --- | --- |
| CCOC(=O)c1c(O)nc2cccc3c2c1-c1cccnc1S3 | inactive |
| Nc1nc(N)c2ncn(Cc3ccccc3CCl)c2n1 | inactive |
| CC(=O)C1=C(C)N(c2ccc(C)cc2)C2(O)C=CC(=O)C3C(=O)N(c4ccccc4)C(=O)C132 (configuration not stated) | inactive |
| CN(C)/C(F)=P\C(F)(F)F (configuration not stated) | inactive |
| COC(=O)c1c[nH]cc1CCc1c[nH]cc1C(=O)OC | inactive |

Exercise: Called result for COc1cc(-c2[nH]ccc2Cl)oc1C1=C2N=C3C=C2C(C(C)C)C1CCCCCCCC3 (configuration not stated)
Key: active

Exercise: Called result for N=C(N)N/N=C\c1ccc(C2CCNCC2)cc1
Key: inactive

Exercise: Called result for O=C(/C=C/c1ccc(Cl)cc1)Oc1ccc(/C=C2\CCCCC2=O)cc1
Key: inactive

* * *

System: CCRF-CEM
Experiment: NCI tumour cell line growth inhibition, 48 h
Activity calls are given as the source filed them. No stated cut-off is given here; in the data, active = GI50 up to about 1.1 µM and inactive = higher.
attribute measured: GI50

Solved entries (count: 6):
| molecule | system tested | attribute measured | measured result |
| --- | --- | --- | --- |
| CN1C(=O)C(=O)N2c3ccc(Cl)cc3C3(c4ccccc4)N=CC12O3 (configuration not stated) | CCRF-CEM | GI50 | 3.03 µM (inactive) |
| C[C@@H]1C(=O)CC2C(C)(C)CCC[C@]2(C)[C@@]12CC[C@]1(C=COC1)O2 (some centres not stated) | CCRF-CEM | GI50 | 23.4 µM (inactive) |
| CC1CC(C)C(C(O)CC2CC(=O)N(c3ccccc3)C(=O)C2)C(O)C1 (configuration not stated) | CCRF-CEM | GI50 | > 100 µM (inactive) |
| Cc1cc(S(=O)(=O)/N=C(\NN)NNc2cccc(C(F)(F)F)n2)c(S)cc1Cl | CCRF-CEM | GI50 | 23.3 µM (inactive) |
| Cc1nnc(N/N=C(/C(=O)C(C#N)c2ccccc2)C(C#N)c2ccccc2)n1N (configuration not stated) | CCRF-CEM | GI50 | 2.12 µM (inactive) |
| Cc1cn(CCOCCOC(=O)NC(CCCNC(=N)N)C(=O)O)c(=O)[nH]c1=O (configuration not stated) | CCRF-CEM | GI50 | > 100 µM (inactive) |

Measured GI50, CC(c1ccc2c(c1)CCC1C2CC2OC23CC=CC(=O)[C@]13C)C1C[C@]2(C)O[C@]2(C)[C@H](O)O1 (some centres not stated) : 15.4 µM (inactive)

* * *

Tested on: SW-620
Experiment: NCI tumour cell line growth inhibition, 48 h
Active and inactive are the calls of the source. Rule as the data show it: active = GI50 up to about 1.1 µM and inactive = higher.
attribute measured: GI50

| compound | measured result |
| --- | --- |
| c1ccc(C2CC(N3CCOCC3)=Nc3ccccc3N2)cc1 (stereo unspecified) | > 100 µM (inactive) |
| CCN(CC)CCCNc1ccc([N+](=O)[O-])c2nc3ccc(OC)cc3c(N)c12 | 1.49 µM (inactive) |
| Brc1ccc(-c2cc3c(cc2C2SCCS2)OCO3)cc1 | 25.6 µM (inactive) |
| O=C(Cn1c2ccc(Br)cc2c2nc3ccccc3nc21)Nc1ccccc1 | 24.8 µM (inactive) |
| N#CC12C(=O)N=C(N)C1(C#N)C(c1ccco1)NC1=C2CCCC1 (stereo unspecified) | > 100 µM (inactive) |
| CCC(=O)O[C@H]1CC[C@H]2[C@@H]3CCC4=C/C(=N/NC(=O)c5cccc6c(=O)c7ccccc7[nH]c56)CC[C@]4(C)[C@H]3CC[C@]12C | > 25 µM (inactive) |
| CCCCCN1CCN(c2ncccn2)CC1 | > 100 µM (inactive) |
| Cc1cccc(Nc2nn3c(=O)c4c5c(sc4nc3s2)CCCC5)c1 | 91.2 µM (inactive) |
| CC1CC(C)C(C(O)CC2CC(=O)N(c3ccccc3)C(=O)C2)C(O)C1 (stereo unspecified) | > 100 µM (inactive) |
| COC(=O)c1c[nH]cc1CCc1c[nH]cc1C(=O)OC | > 100 µM (inactive) |

Measured GI50, Cc1ccc(S(=O)(=O)N/N=C2/CCC(C(C)(C)C)CC2Br)cc1 (stereo unspecified) : 23.9 µM (inactive)

Measured GI50, CO[C@H]1[C@@H](O)[C@H](O[C@@H]2C[C@H]3CC[C@@H]4[C@H](CC[C@]5(C)[C@@H](C6=CC(=O)OC6)CC[C@]45O)[C@@]3(C)[C@H](OC(C)=O)C2)O[C@@H](C)[C@H]1O : 2.36 µM (inactive)

Measured GI50, CCOC(=O)C(=O)Nc1c(N(CC)CC)n2ccccc2nc1=O : > 100 µM (inactive)

Measured GI50, COc1ccc(-c2c(C#N)c(S)n(NS(=O)(=O)c3ccc(C)cc3)c(=O)c2C#N)cc1 : 18.6 µM (inactive)

* * *

Tested on: NCI-H226
Experiment: NCI tumour cell line growth inhibition, 48 h
Activity calls are given as the source filed them. No stated cut-off is given here; in the data, active = GI50 up to about 1.1 µM and inactive = higher.
Form entry, call: pick from active, inactive

Use the examples below as a reference point.
| compound | system tested | class assignment |
| --- | --- | --- |
| CC(C)(C)c1ccc2c(c1)S(=O)(=O)Nc1ccc(Cl)cc1NS(=O)(=O)c1cc(C(C)(C)C)ccc1OCCOCCOCCO2 | NCI-H226 | inactive |
| CC1CC(C)C2=NOS3=C2C1=NO3 (centres undefined) | NCI-H226 | inactive |
| CCOC(=O)N1C2C=C(C)C(ON2C(=O)c2ccccc2)C2C(C)C(=O)N21 (centres undefined) | NCI-H226 | inactive |
| CN(C)/C(F)=P\C(F)(F)F (centres undefined) | NCI-H226 | inactive |
| COc1ccccc1C1C2=C(COC2=O)OC(C)(C)Oc2cc3c(cc21)OCO3 (centres undefined) | NCI-H226 | inactive |
| O=C(CC1(O)C(=O)Nc2ccccc21)c1ccc(F)cc1 (centres undefined) | NCI-H226 | inactive |
| N=C(N)CCNC(=O)C1CCC(N)=N1 (centres undefined) | NCI-H226 | inactive |
| O=c1[nH]c(-c2ccccc2)nc2cc(Cl)ccc12 | NCI-H226 | inactive |

Exercise: Called result for CC(C)(C)C#C[P+](c1ccccc1)(c1ccccc1)c1ccccc1
Key: active

Exercise: Called result for O=C1NC(=O)C2C1C1C=C3c4ccccc4N(c4ccccc4)C32[C@H]2C(=O)NC(=O)[C@@H]12 (some centres undefined)
Key: inactive

Exercise: Called result for COc1ccc2c3c1OC1C4(CCC5C(C2)N(CC2CC2)CCC351)OCCO4 (centres undefined)
Key: inactive

Exercise: Called result for N/C(CSCCSC/C(N)=N/O)=N\O
Key: inactive

Exercise: Called result for Cc1cc(SCC(=O)c2ccc(Br)cc2)cc(C)[o+]1
Key: inactive

Exercise: Called result for CCCCCC1=CC(=O)C1(Cl)Cl
Key: inactive

* * *

System: SK-MEL-5
Assay: NCI tumour cell line growth inhibition, 48 h
Calls of active or inactive are those of the source. Cut-off read from the data, not from the text of the source: active = GI50 up to about 1.1 µM and inactive = higher.
Form entry, call: pick from active, inactive

Use the examples below as a reference point.
| compound | class assignment |
| --- | --- |
| Cn1nc(-c2ccccc2)c(C(=O)/C=C/c2ccc(F)cc2)c(N2CCCCC2)c1=O | inactive |
| CCCCc1ccc2[n+](c1)C(C(=O)OCC)=PC2 (stereo not drawn) | inactive |
| CCN(CC)C(=S)N/N=C/c1ccccn1 | active |
| CC1(C)CCCCC1/C=C/C(CC(O)(C(F)(F)F)C(F)(F)F)=N\Nc1ccc([N+](=O)[O-])cc1[N+](=O)[O-] (stereo not drawn) | active |
| CN(C)c1cccc2c(S(=O)(=O)NCCN)cccc12 | inactive |

Exercise: Called result for O=C1SC(c2ccc(Cl)cc2)(c2ccc(Cl)cc2)c2ccccc21
Key: inactive

* * *

Tested on: LOX IMVI
Experiment: NCI tumour cell line growth inhibition, 48 h
The source made the active and inactive calls. Cut-off read from the data, not from the text of the source: active = GI50 up to about 1.1 µM and inactive = higher.
Form entry, call: pick from active, inactive

Use the examples below as a reference point.
| molecule | class assignment |
| --- | --- |
| O=C(O)c1cc2ccccc2oc1=O [COUMARIN-3-CARBOXYLIC ACID] | inactive |
| COC(=O)C1CC/C(=N/c2ccc(C)cc2C)N1 (stereo not drawn) | inactive |
| CC(C(=O)N1c2ccccc2Sc2ccccc21)N1c2ccccc2Sc2ccccc21 (stereo not drawn) | inactive |
| NS(=O)(=O)c1cc(S(N)(=O)=O)c(NC(=O)Nc2ccc(Cl)c(Cl)c2)c(Cl)c1Cl | inactive |
| COC(=O)c1cc(C(=CCC[C@H]2CC[C@@]3(C)C(CCC4C3CC[C@@]3(C)C4CC[C@@H]3C(C)CCCC(C)C)C2)c2cc(Cl)c(OC(=O)c3ccccc3)c(C(=O)OC)c2)cc(Cl)c1OC(=O)c1ccccc1 (stereo partly drawn) | inactive |

Exercise: Called result for CCCCCCCCCCCCCCCCCC(=O)OCC(COC(=O)CCCN)OC(=O)CCCN (stereo not drawn)
Key: inactive

Exercise: Called result for Nc1nc(I)nc2c1ncn2C1OC(COS(N)(=O)=O)C(O)C1O (stereo not drawn)
Key: active

Exercise: Called result for Cc1cc(O)c(C(c2cccnc2)c2c(O)cc(C)[nH]c2=O)c(=O)[nH]1
Key: inactive
